Every entry's value here was drawn from patent US20180282397A1.

target: T1, H-Ras(G12V)-GTP (Homo sapiens (Human), UniProt P01112 1-166); assay: SPR, Biacore T100, biotinylated H-Ras(G12V)-GppNHp on streptavidin chip, MBP-intrabody fusion injected, 25 C
T1 construct: also called H-Ras(G12V)-GppNHp; active H-Ras(G12V); not shown: avitag and His tag at the 5' (N-terminal) end
readout: Kd (nM)

RasIn1 maltose binding protein fusion (designed binder, not shown: large carriers) MLEVKEASPTSIQISWGPVFSAYSRYYRITYGETGGNSPVQEFTVPGSKSAATISGLKPGVDYTITVYAVTFRWPMPRLVRPISINYRT; 2100
RasIn2 maltose binding protein fusion (designed binder, not shown: large carriers) MLEVKEASPTSIQISWSIVFGKHDRYYRITYGETGGNSPVQEFTVPGSKSAATISGLKPGVDYTITVYAVTFRWPKRRLVRPISINYRT; 120
